target: TGF-β1 (Homo sapiens, UniProt P01137)
Sequence (P01137 279-390 limits assumed): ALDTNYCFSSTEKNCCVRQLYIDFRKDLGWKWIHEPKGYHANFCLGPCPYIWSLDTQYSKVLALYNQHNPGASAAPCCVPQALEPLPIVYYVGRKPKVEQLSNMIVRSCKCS
protocol notes: Equilibrium binding of TGF-β1 to FN, FN domains and peptides
condition info: equilibrium binding
No end group written: not given here.

{"columns": ["seq string", "Kd"],
 "data": [
  ["QPSVGQQMIFEEHGFRRTTPPTTAT [peptide 4]", "100 nM"]
]}
